# tested system: hAT1R (Homo sapiens, UniProt P30556)
# assay info: cell-based
# test settings: agonist mode; read-out: BRET P63 EC50
result type: EC50 (nM)
// units = nM; emit number, no label

// worked examples, EC50 included
| compound | EC50 / nM |
| --- | --- |
| CCc1nc2c(C)cc(C)nc2n1Cc1ccc(-c2cc(Oc3cc(F)ccn3)ccc2-c2nn[nH]n2)cc1 [Example 254] | 39.9 |
| CCCC1=NC2(CCOC2)C(=O)N1Cc1ccc(-c2cc(-c3ccccc3O)ccc2-c2nnn[nH]2)cc1 (single isomer, unassigned) [Example 160] | 79.7 |

--- query ---
For this compound ( CCc1cn(-c2ccc(-c3nnn[nH]3)c(-c3ccc(Cn4c(CC)nc5c(C)cc(C)nc54)cc3)c2)nn1 [Example 231] ), measured EC50 is 36.2

###

# tested system: AGTR1 (Homo sapiens, UniProt P30556)
# Construct: host or cells: Pathunter CHO-K1 AGTR1 β-arrestin cell line (CHO-K1)
# Sequence (P30556 1-359): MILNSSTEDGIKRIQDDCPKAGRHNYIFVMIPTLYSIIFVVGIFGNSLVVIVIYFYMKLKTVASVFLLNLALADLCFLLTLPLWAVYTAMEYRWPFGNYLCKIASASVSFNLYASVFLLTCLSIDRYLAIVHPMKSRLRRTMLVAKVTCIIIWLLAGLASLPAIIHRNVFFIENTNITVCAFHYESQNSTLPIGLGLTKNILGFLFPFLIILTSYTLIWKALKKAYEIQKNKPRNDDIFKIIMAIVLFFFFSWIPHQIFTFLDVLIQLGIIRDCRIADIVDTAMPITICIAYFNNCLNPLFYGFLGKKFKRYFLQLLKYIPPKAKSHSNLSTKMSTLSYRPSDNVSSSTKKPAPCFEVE
# assay info: DiscoveRx IP1 accumulation assay (HTRF), agonist mode, Pathunter CHO-K1 AGTR1 β-arrestin cell line
# Type: cell-based
# test settings: read-out: IP-1 EC50
result type: pEC50
Scale for pEC50: -log10 of concentration given in mol/L; no unit attached.

| compound | tested system | result type | result |
| --- | --- | --- | --- |
| CCc1nc2c(C)cc(C)nc2n1Cc1ccc(-c2cc(-c3ccccc3)ccc2-c2nnn[nH]2)cn1 [Example 179] | AGTR1 (Homo sapiens, UniProt P30556) | pEC50 | 7.09 |
| CC1=NC2(CCCC2)C(=O)N1Cc1ccc(-c2cc(-c3cc(C)ccn3)ccc2-c2nn[nH]n2)cc1 [Example 111] | AGTR1 (Homo sapiens, UniProt P30556) | pEC50 | 7.90 |
| CCc1nc2c(C)cc(C)nc2n1Cc1ccc(-c2cc(Nc3ccccc3)ccc2-c2nn[nH]n2)cc1 [Example 93] | AGTR1 (Homo sapiens, UniProt P30556) | pEC50 | 7.67 |

Kindly consider the entry below.
# compound CCc1nc2c(C)cc(C)nc2n1Cc1ccc(-c2cc(C3CCCCO3)ccc2-c2nn[nH]n2)cc1 (single isomer, unassigned) [Example 78] ; its pEC50 = 7.10

###

Reported EC50 values for a set of compounds
# tested system: hAT1R (Homo sapiens, UniProt P30556)
# assay info: BRET β-arrestin2 biosensor assay, higher receptor expression (hAT1R 5 ng/well), HEK293 cells
# Format: cell-based
# test settings: High AT1R Expression
Field format: number, assumed nM, no unit text.

Use the examples below as a reference point.
| structure string | result type | result |
| --- | --- | --- |
| CCCc1cn(-c2ccc(-c3nnn[nH]3)c(-c3ccc(Cn4c(CC)nc5c(C)cc(C)nc54)cc3)c2)nn1 | EC50 | 31.9 |
| CCc1nc2c(C)cc(C)nc2n1Cc1ccc(-c2cc(-c3cncn3C)ccc2-c2nn[nH]n2)cc1 | EC50 | 190 |
| CCCc1nc(CC)c(C(=O)O)n1Cc1ccc(-c2cc(-c3ccccc3)ccc2C(=O)O)cc1 | EC50 | 172 |
| CCOc1nc2cccc(C(=O)O)c2n1Cc1ccc(-c2cc(-c3ccccc3)ccc2C(=O)O)cc1 | EC50 | 5.8 |
| CCCCC(=O)N(Cc1ccc(-c2cc(-c3ccccc3)ccc2-c2noc(=O)[nH]2)cc1)C1(C(=O)O)CCCCC1 | EC50 | 10.5 |

Data point: "CCCCC1=NC2(CCCC2)C(=O)N1Cc1ccc(-c2cc(-c3ccc(C(=O)N(C)C)cc3)ccc2-c2nn[nH]n2)cc1" ; EC50 = 38.4

In plain terms, "CCCCc1ncc(C(=O)N2CCCC2)n1Cc1ccc(-c2cc(-c3ccccc3)ccc2-c2nn[nH]n2)cc1" has a documented EC50 of 172

EC50 reported for this compound "CCCCC(=O)N(Cc1ccc(-c2cc(-c3cccc(OC)n3)ccc2-c2nn[nH]n2)cc1)C1(C(=O)O)CCCCC1" : 68.8

For record "CCCCC1=NC2(CCCC2)C(=O)N1Cc1ccc(-c2cc(-c3cccc(F)c3F)ccc2-c2noc(=O)[nH]2)cc1" the listed EC50 is 26.8

Sample "CC(C)CCC(=O)N(Cc1ccc(-c2cc(-c3ccccc3)ccc2-c2nn[nH]n2)nc1)[C@H](C(=O)O)C(C)C" ; EC50 observed: 115

For "CCCCC(=O)N(Cc1ccc(-c2cc(Oc3cccnc3)ccc2-c2nn[nH]n2)cc1)C1(C(=O)O)CCCCC1" the compound record lists EC50 as 47.1

###

# tested system: hAT1R (Homo sapiens)
# assay info: cell-based
# test settings: agonist mode; read-out: BRET P63 EC50
result type: pEC50
Note: pEC50 values are expressed as the negative base-10 logarithm of concentration in M.

| structure string | result type | result |
| --- | --- | --- |
| CCc1nc2c(C)cc(C)nc2n1Cc1ccc(-c2cc(-c3ccc(CO)cc3)ccc2-c2nn[nH]n2)cc1 | pEC50 | 7.63 |

Per the record, "CCc1nc2c(C)cc(C)nc2n1Cc1ccc(-c2cc(Oc3cccc(F)n3)ccc2-c2nn[nH]n2)cc1" has pEC50 of 7.37

###

We begin with a simple list: items and their reported EC50.
# tested system: hAT1R (Homo sapiens)
# assay info: cell-based
# test settings: section of the 42nd table ending at r951, example numbering restarts after the DiscoveRx section; read-out: β-arrestin2 EC50
Please state the figure in nM; there is no need to write the unit.

| compound | tested system | result type | result |
| --- | --- | --- | --- |
| CCCc1nc(CC)c(C(=O)O)n1Cc1ccc(-c2cc(-c3ccccc3)ccc2-c2nn[nH]n2)c(C)c1 [Example 425] | hAT1R (Homo sapiens) | EC50 | 47.4 |
| CCCCc1nc(Cl)c(C(=O)O)n1Cc1ccc(-c2cc(-c3cn(C(C)C)nc3C(F)(F)F)ccc2-c2nn[nH]n2)cc1 [Example 388] | hAT1R (Homo sapiens) | EC50 | 26.7 |
| CCc1nc2c(C)cc(C)nc2n1Cc1ccc(-c2cc(Oc3ncccc3Cl)ccc2-c2nn[nH]n2)cc1 [Example 255] | hAT1R (Homo sapiens) | EC50 | 87.8 |
| CCOc1nc2cccc(C(=O)O)c2n1Cc1ccc(-c2cc(Oc3cccnc3)ccc2-c2nn[nH]n2)cc1 [Example 333] | hAT1R (Homo sapiens) | EC50 | 11.3 |
| CCc1nc2c(C)cc(C)nc2n1Cc1ccc(-c2cc(Oc3cccnc3F)ccc2-c2nn[nH]n2)cc1 [Example 262] | hAT1R (Homo sapiens) | EC50 | 14.3 |
| CCc1nc2c(C)cc(C)nc2n1Cc1ccc(-c2cc(-c3cccc(C)c3)ccc2-c2nnn[nH]2)nc1 [Example 175] | hAT1R (Homo sapiens) | EC50 | 10.7 |

From here, focus on the item given below.
# compound CCc1nc2c(C)cc(C)nc2n1Cc1ccc(-c2cc(Oc3cncc(C)c3)ccc2-c2nn[nH]n2)cc1 [Example 260] ; its EC50 = 49.9

###

# tested system: hAT1R (Homo sapiens)
# assay info: BRET β-arrestin2 biosensor assay, higher receptor expression (hAT1R 5 ng/well), HEK293 cells
# Format: cell-based
# test settings: High AT1R Expression
result type: EC50 (nM)
// note: answer is a bare numeric in nM

Illustrative cases are given below, each with its answer.
| structure string | result |
| --- | --- |
| CCCCc1nc(Cl)c(C(=O)O)n1Cc1ccc(-c2cc(-c3ccc(C(=O)N(C)C)cc3)ccc2-c2nn[nH]n2)cc1 | 24.4 |
| CCc1nc2c(C)cc(C)nc2n1Cc1ccc(-c2cc(-n3cccn3)ccc2-c2nn[nH]n2)cc1 | 19.8 |
| CCc1nc2c(C)cc(C)nc2n1Cc1ccc(-c2cc(N3CCC(F)(F)C3)ccc2-c2nn[nH]n2)cc1 | 99 |
| CCc1nc2c(C)cc(C)nc2n1Cc1ccc(-c2cc(-c3ccccc3)ccc2-c2nnn[nH]2)cn1 | 20.7 |
| CCc1nc2c(C)cc(C)nc2n1Cc1ccc(-c2cc(-c3cc(C)cc(C)c3)ccc2C(=O)O)cc1 | 4.8 |
| CCCCOC(=O)NS(=O)(=O)c1sc(-c2ccccc2C)cc1-c1ccc(Cn2c(CC)nc3c(C)cc(C)nc32)cn1 | 18.8 |
| CCCCc1nc(Cl)c(C(N)=O)n1Cc1ccc(-c2cc(-c3ccccc3)ccc2-c2nn[nH]n2)cc1 | 12 |
| CCCCC1=NC2(CCCC2)C(=O)N1Cc1ccc(-c2cc(N3CCC[C@H](C)C3)ccc2-c2nn[nH]n2)cc1 | 346 |

Form field EC50, entry "CCCCC(=O)N(Cc1ccc(-c2cc(-c3ccccc3)ccc2-c2noc(=O)[nH]2)cc1)C1(C(=O)OC)CCCCC1" : 699
